# measured-on: human KDR (VEGFR2) on cells (human, UniProt P35968 20-1356)
# Sequence (P35968 20-1356): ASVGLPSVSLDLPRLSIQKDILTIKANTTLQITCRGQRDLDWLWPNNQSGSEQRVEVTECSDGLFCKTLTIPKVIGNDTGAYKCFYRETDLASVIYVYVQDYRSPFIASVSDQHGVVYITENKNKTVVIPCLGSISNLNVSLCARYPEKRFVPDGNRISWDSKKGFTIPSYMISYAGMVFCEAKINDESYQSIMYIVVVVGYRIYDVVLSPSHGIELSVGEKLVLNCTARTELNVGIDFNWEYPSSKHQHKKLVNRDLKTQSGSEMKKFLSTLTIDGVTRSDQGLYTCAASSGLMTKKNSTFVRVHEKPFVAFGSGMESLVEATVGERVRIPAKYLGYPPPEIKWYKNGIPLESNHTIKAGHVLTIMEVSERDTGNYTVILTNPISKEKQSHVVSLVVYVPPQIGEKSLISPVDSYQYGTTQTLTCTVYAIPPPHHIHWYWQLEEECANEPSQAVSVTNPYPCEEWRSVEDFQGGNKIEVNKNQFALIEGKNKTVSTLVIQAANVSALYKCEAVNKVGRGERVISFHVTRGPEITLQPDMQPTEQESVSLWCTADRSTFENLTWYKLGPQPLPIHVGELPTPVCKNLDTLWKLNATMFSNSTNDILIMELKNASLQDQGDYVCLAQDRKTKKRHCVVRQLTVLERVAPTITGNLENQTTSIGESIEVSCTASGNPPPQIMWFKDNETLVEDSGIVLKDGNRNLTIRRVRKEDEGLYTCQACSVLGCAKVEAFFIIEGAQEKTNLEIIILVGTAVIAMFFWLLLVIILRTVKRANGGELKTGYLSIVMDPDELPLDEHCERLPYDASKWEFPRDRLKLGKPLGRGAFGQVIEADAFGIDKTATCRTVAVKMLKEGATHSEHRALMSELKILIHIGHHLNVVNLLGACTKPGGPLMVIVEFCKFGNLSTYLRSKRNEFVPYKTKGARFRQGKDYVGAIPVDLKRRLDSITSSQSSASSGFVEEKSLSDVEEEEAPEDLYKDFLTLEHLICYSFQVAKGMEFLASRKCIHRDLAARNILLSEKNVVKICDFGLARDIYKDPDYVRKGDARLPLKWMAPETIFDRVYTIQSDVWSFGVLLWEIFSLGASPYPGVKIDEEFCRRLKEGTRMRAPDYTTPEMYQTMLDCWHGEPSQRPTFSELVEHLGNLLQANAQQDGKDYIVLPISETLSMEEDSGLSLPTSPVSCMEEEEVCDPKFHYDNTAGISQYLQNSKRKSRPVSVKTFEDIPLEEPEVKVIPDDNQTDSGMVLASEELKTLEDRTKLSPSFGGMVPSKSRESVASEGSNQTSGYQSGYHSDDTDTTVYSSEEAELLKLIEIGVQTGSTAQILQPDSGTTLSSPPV
# test-method-notes: cell-based or functional assay
Consider the following binders and their measured HUVEC survival (n = 1) 1:10 dilution of supernatant (RLU) readings.
assay-readout: HUVEC survival (n = 1) 1:10 dilution of supernatant (RLU)

- binder: "anti-KDR monoclonal antibody 24B3 (antibody, V domains shown, Fully human mAb from XenoMouse (IgG2 or IgG4 strain); hybridoma supernatant) VH: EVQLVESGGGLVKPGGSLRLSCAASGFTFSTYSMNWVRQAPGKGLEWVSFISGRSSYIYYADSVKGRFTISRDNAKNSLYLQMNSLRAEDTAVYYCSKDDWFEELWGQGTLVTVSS VL: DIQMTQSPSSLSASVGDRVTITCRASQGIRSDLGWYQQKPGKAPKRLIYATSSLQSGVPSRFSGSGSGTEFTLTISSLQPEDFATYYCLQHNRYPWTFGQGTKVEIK"
  observed-measurement: 14100
- binder: "anti-KDR monoclonal antibody 30A1 (antibody, V domains shown, Fully human mAb from XenoMouse (IgG2 or IgG4 strain); hybridoma supernatant) VH: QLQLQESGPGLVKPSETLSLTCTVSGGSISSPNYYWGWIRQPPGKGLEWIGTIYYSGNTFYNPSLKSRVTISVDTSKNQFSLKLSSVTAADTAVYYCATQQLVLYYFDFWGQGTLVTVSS VL: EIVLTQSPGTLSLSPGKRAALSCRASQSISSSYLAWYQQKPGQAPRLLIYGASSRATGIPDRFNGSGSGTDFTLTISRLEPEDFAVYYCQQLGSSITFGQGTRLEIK"
  observed-measurement: 14400
- binder: "anti-KDR monoclonal antibody 29A3 (antibody, V domains shown, Fully human mAb from XenoMouse (IgG2 or IgG4 strain); hybridoma supernatant) VH: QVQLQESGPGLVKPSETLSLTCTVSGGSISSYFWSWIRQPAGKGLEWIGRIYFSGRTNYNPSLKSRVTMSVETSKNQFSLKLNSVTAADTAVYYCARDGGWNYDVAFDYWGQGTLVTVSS VL: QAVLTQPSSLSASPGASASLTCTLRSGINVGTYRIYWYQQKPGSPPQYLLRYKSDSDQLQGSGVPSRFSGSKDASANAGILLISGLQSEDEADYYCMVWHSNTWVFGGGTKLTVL"
  observed-measurement: 36400
